- target-entity: GABA-A receptor; agonist GABA site
- experiment-notes: Positive allosteric modulation of recombinant alpha4beta3delta GABAA receptor (unknown origin) expressed in CHO cells assessed as potentiation of GABA-induced channel current treated for 30 s prior to GABA stimulation for 2s by manual patch assay
- Format: cell-based, Homo sapiens
Assignment: determine reported pEC50 for the given compounds.
Numbers only, as −log10 of the molar value.

>>> value_measured("C[C@@]1(O)CC[C@H]2[C@H](CC[C@@H]3[C@@H]2CC[C@]2(C)[C@@H](C(=O)Cn4ncc5cnccc54)CC[C@@H]32)C1")
5.85
>>> value_measured("C[C@@]1(O)CC[C@H]2[C@@H](CC[C@@H]3[C@@H]2CC[C@]2(C)[C@@H](C(=O)Cn4cccn4)CC[C@@H]32)C1")
5.94
>>> value_measured("C[C@@]1(O)CC[C@H]2[C@H](CC[C@@H]3[C@@H]2CC[C@]2(C)[C@@H](C(=O)Cn4cccn4)CC[C@@H]32)C1")
5.84
>>> value_measured("CC(=O)[C@H]1CC[C@H]2[C@@H]3CC[C@@H]4C[C@](C)(O)CC[C@@H]4[C@H]3CC[C@]12C")
6.92
>>> value_measured("C[C@@]1(O)CC[C@H]2[C@H](CC[C@@H]3[C@@H]2CC[C@]2(C)[C@@H](C(=O)Cn4cc5ncccc5n4)CC[C@@H]32)C1")
6.46
>>> value_measured("C[C@@]1(O)CC[C@H]2[C@H](CC[C@@H]3[C@@H]2CC[C@]2(C)[C@@H](C(=O)Cn4cc5c(n4)CCCC5)CC[C@@H]32)C1")
6.75
>>> value_measured("C[C@@]1(O)CC[C@H]2[C@H](CC[C@@H]3[C@@H]2CC[C@]2(C)[C@@H](C(=O)Cn4ncc5ccccc54)CC[C@@H]32)C1")
6.29
>>> value_measured("C[C@@]1(O)CC[C@H]2[C@H](CC[C@@H]3[C@@H]2CC[C@]2(C)[C@@H](C(=O)Cn4ccnn4)CC[C@@H]32)C1")
5.74

Here is the next item to consider.
So what's the measured pEC50 for this one? CC(=O)[C@H]1CC[C@H]2[C@@H]3CC[C@H]4C[C@](C)(O)CC[C@]4(C)[C@H]3CC[C@]12C [GANAXOLONE]
6.99

---

- experiment-notes: Ratio of drug level in brain to plasma in Sprague-Dawley rat at 5 mg/kg, iv after 30 mins by LC-MS/MS analysis
- Assay type: ADME, organism-based
- Design: dose 5 mg/kg, route intravenous
- run-parameters: read-out: BPR
assay-metric: Kp at 0.5 h
Numbers only.

Example cases with answers are listed next.
>>> value_measured("CC(=O)[C@H]1CC[C@H]2[C@@H]3CC[C@H]4C[C@H](O)CC[C@]4(C)[C@H]3CC[C@]12C [BREXANOLONE]")
1.8
>>> value_measured("C[C@@]1(O)CC[C@H]2[C@H](CC[C@@H]3[C@@H]2CC[C@]2(C)[C@@H](C(=O)Cn4nccn4)CC[C@@H]32)C1")
1.8
>>> value_measured("C[C@@]1(O)CC[C@H]2[C@H](CC[C@@H]3[C@@H]2CC[C@]2(C)[C@@H](C(=O)Cn4cc5ncccc5n4)CC[C@@H]32)C1")
1.3
>>> value_measured("C[C@@]1(O)CC[C@H]2[C@H](CC[C@@H]3[C@@H]2CC[C@]2(C)[C@@H](C(=O)Cn4ncnn4)CC[C@@H]32)C1")
2.3
>>> value_measured("CC(=O)[C@H]1CC[C@H]2[C@@H]3CC[C@H]4C[C@](C)(O)CC[C@]4(C)[C@H]3CC[C@]12C [GANAXOLONE]")
4

I would be grateful if you could provide Kp at 0.5 h for each of the following entries.
1. C[C@@]1(O)CC[C@H]2[C@@H](CC[C@@H]3[C@@H]2CC[C@]2(C)[C@@H](C(=O)Cn4ncnn4)CC[C@@H]32)C1
2. C[C@@]1(O)CC[C@H]2[C@H](CC[C@@H]3[C@@H]2CC[C@]2(C)[C@@H](C(=O)Cn4cc5ccncc5n4)CC[C@@H]32)C1

1. 2
2. 2.1
